Biological target: T1, Human IL-11 (human, UniProt P20809 22-199); note: test concentration or dose not given here
T1 sequence: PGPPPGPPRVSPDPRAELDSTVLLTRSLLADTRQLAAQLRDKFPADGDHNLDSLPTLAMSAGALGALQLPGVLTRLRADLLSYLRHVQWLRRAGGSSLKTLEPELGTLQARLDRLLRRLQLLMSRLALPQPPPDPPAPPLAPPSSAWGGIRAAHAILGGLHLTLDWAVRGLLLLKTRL
Experiment: cell-based or functional assay
metric-name: MMP2 production, Experiment 2 (human atrial fibroblasts + TGFB1) (ng/mL)
Respond with the bare value in ng/mL.

Here are 4 binders together with their reported answers.
YU100-H05 (antibody) QVQLVESGGGVVQPGRSLRLSCAASGFTFSSYGMHWVRQAPGKGLEWVAVISYDGSNKYYADSVKGRFTISRDNSKNTLYLQMNSLRAEDTAVYYCAKIGATDPLDYWGQGTLVTVSSGSASAPKLEEGEFSEARVQAVLTQPRSVSGSPGQSITISCTGTGSNVGGYNYVSWYQQHPGQAPKLMIYDVSKRPSGVPDRFSGSKSGNTASLTISGLQAEDEADYYCCSYAGTYTWVFGGGTKLTVL | 47.8
YU100-D02 (antibody) QVRLVQSGGGVVQPGRSLRLSCAASGFTFSSYGMHWVRQAPGKGLEWVAVISYDGSNKYYADSVKGRFTISRDNSKNTLYLQMNSLRAEDTAVYYCAKIGATDPLDYWGQGTLVTVSSGSASAPKLEEGEFSEARVQSALTQPRSVSGSPGQSVTISCTGTSGDVGTYNYVSWYQQHPGKAPKLMIFDVSKRPSGVPDRFSGSKSGNTASLTISGLQAEDEADYYCNSYAGSYTWVFGGGTKLTVLGQPKAAPSVTLFPPSS | 42.2
YU100-A10 (antibody) EVQLVESGGGVVQPGRSLRLSCAASGFTFSSYGMHWVRQAPGKGLEWVAVISYDGSNKYYADSVKGRFTISRDNSKNTLYLQMNSLRAEDTAVYYCAKIGATDPLDYWGQGTLVTVSSGSASAPKLEEGEFSEARVLPVLTQPASVSGSPGQSITISCTGTSSDVGAYNYVSWYQQHPGKAPELMIYDVSNRPSGVSNRFSGSKSGNTASLTISGLQPEDEADYYCSSFTTSIAWVFGGGTKLTVL | 50.1
YU100-E07 (antibody) QVQLQESGGGVVQPGRSLRLSCAASGFTFSSYGMHWVRQAPGKGLEWVAVISYDGSNRYYADSVKGRFAISRDNSKNTLYLQMNSLRAEDTAVYYCAKIGATDPLDYWGQGTLVTVSSGSASAPKLEEGEFSEARVQSALTQPRSVSGSPGQSVTISCTGTSSDVGGYDYVSWYQQHPGKAPELMIYDVTKRPSGVADRFSGSKSGNTASLTISGLQAEDEADYYCCSYAGRYTWVFGGGTKLTVL | 46.5

Lab note: next binder to report on.
Give a short answer stating reported MMP2 production, Experiment 2 (human atrial fibroblasts + TGFB1) for YU100-D11 (antibody) QVQLVQSGGGVVQPGRSLRLSCAASGFTFSSYGMHWVRQAPGKGLEWVAVISYDGSNKYYADSVKGRFTISRDNSKNTLYLQMNSLRAEDTAVYYCAKIGATDPLDYWGQGTLVTVSSGSASAPKLEEGEFSEARVQSALTQPRSVSGSPGQSVTISCTGTSSNVGGYNYVSWYQQHPGKAPKLMIYDVSKRPSGVPDRFSGSKSGNTASLTISGLQAEDEANYYCASYAGNYNWVFGGGTKLTVLGQPKAAPSVTLFPPSS .
47.2

The values you see were collected from patent US20210230266A1.
